In this section we review reported OD at 10 ug peptide relative to OD of original peptide (inhibition ELISA) values for a set of binders.
# experimental_target: monoclonal antibody MV-003
# assay_name: inhibition ELISA, competitor coated original epitope p4373; code 1 = weaker than original epitope

Recorded OD at 10 ug peptide relative to OD of original peptide (inhibition ELISA), per entry:
Query string: Any idea what OD at 10 ug peptide relative to OD of original peptide (inhibition ELISA) was measured for IRWDGC [p4792] ?
Result string: 5 to 12 fold

Query string: Request: IRYDAPLC [p4397]
Result string: 5 to 12 fold

Query string: Request: IRWDTPC [p4395]
Result string: 5 to 12 fold

Query string: Request: IRWDQPC [p4756]
Result string: 5 to 12 fold

# ---- query binder ----
Query string: Any idea what OD at 10 ug peptide relative to OD of original peptide (inhibition ELISA) was measured for IRWDGGC [p4793] ?
Result string: 5 to 12 fold
